Attribute: inhibition
assayed_target: Rac GTPase-activating protein 1 (Homo sapiens) (UniProt Q9H0H5)
Sequence (Q9H0H5 whole entry, looked up): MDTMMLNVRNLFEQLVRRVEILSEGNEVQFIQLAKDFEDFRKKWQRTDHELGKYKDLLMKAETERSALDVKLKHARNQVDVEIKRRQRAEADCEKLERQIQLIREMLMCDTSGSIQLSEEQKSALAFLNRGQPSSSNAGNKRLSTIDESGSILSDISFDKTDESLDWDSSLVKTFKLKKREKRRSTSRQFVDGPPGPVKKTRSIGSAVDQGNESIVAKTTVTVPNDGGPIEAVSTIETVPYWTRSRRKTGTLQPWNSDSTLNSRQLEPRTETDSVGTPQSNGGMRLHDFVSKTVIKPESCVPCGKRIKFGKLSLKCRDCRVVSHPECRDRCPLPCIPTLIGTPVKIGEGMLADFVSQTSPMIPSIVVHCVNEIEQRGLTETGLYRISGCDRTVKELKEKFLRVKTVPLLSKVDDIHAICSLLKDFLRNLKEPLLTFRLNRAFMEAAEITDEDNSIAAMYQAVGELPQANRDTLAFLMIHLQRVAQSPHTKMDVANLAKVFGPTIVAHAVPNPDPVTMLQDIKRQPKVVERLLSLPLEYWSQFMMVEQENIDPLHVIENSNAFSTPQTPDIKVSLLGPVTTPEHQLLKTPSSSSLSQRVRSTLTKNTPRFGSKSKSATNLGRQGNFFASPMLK
test_method_notes: blockers of MgcRacGAP-driven Rac1 GTP hydrolysis – biochemical, ADP Hunter fluorescence, primary and confirmatory, confirmation (AID 624330);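 note: fluorescence reports GDP produced by GAP-driven GTP hydrolysis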
condition_label: MgcRacGAP-stimulated Rac1 GTP hydrolysis, at 30 µM, hits give high values, GST-tagged Rac1 F28L mutant substrate
Among all 340,000 compounds or so, about 2,100 (0.62%) were called active. These entries were drawn from the full list. Measured potencies and affinities stand elsewhere.

Past entries and their recorded results:
{"molecule": "Cc1c(C(=O)N/N=C/c2cccs2)nc2ccccn12", "assayed_target": "Rac GTPase-activating protein 1 (Homo sapiens) (UniProt Q9H0H5)", "inhibition": "4.8% (inactive)"}
{"molecule": "CCN(CC)c1ccc(S(=O)(=O)N2CCOCC2)cc1NC(=O)COC(=O)/C=C/c1ccccc1", "assayed_target": "Rac GTPase-activating protein 1 (Homo sapiens) (UniProt Q9H0H5)", "inhibition": "-3.02% (inactive)"}
{"molecule": "COc1cccc(/C=N/NC(=O)c2nnn(-c3nonc3N)c2C(C)C)c1", "assayed_target": "Rac GTPase-activating protein 1 (Homo sapiens) (UniProt Q9H0H5)", "inhibition": "2.84% (inactive)"}
{"molecule": "COc1cc(/C=N/NC(=O)c2nnn(-c3nonc3N)c2C(C)C)ccc1OCc1ccccc1", "assayed_target": "Rac GTPase-activating protein 1 (Homo sapiens) (UniProt Q9H0H5)", "inhibition": "12.2% (inactive)"}
{"molecule": "CN(C)c1nc(C(=O)O)nc(N2CCOCC2)n1", "assayed_target": "Rac GTPase-activating protein 1 (Homo sapiens) (UniProt Q9H0H5)", "inhibition": "7.25% (inactive)"}

Challenge: I'd like to know its inhibition. The molecule in question is Cc1ccc(N(C(C)C(=O)O)S(=O)(=O)c2cccnc2)cc1 (stereo not drawn)
Response given: 4.39% (inactive)

Challenge: Lookup COc1cccc(NC(=O)CN(C)C(C)C(=O)Nc2ccc(S(=O)(=O)N3CCCC3)cc2)c1 (stereo not drawn)
Response given: -2.38% (inactive)

Challenge: Lookup CCN(CC)S(=O)(=O)c1cccc(C(=O)NCC2CCCO2)c1 (stereo not drawn)
Response given: -3.29% (inactive)

Challenge: Lookup O=C1c2ccccc2C(=O)C1c1ccc(Br)cc1
Response given: 9.65% (inactive)

Challenge: Lookup O=C(OCc1ccccc1)N1CCC2CC1c1cc(Cl)ccc12 (stereo not drawn)
Response given: 2.05% (inactive)

Challenge: Lookup CON(C)c1nc(NCC(C)C)nc(OCC#N)n1
Response given: -6.48% (inactive)

Challenge: Lookup Cc1nonc1C(=O)N/N=C/c1cccc(O)c1
Response given: 5.55% (inactive)

Challenge: Lookup O=C1NC2(CCc3ccccc32)C(=O)N1CCOc1ccc(Cl)cc1 (stereo not drawn)
Response given: 2.47% (inactive)

Challenge: Lookup COc1cc(/C=C/C(=O)OCC(=O)Nc2cc(S(=O)(=O)N3CCCC3)ccc2Cl)cc(OC)c1OC
Response given: -3.8% (inactive)

Challenge: Lookup CNC(=O)c1sc(=S)n(-c2ccc(OC)cc2)c1N
Response given: 3.75% (inactive)

Challenge: Lookup Cc1nonc1C(=O)N/N=C/c1ccc([N+](=O)[O-])o1
Response given: 6.74% (inactive)

Challenge: Lookup COc1cccc(/C=C/C(=O)OCC(=O)Nc2ccc(S(=O)(=O)N3CCCC3)cc2)c1
Response given: 1.91% (inactive)

---

assayed_target: Rac GTPase-activating protein 1 (Homo sapiens) (UniProt Q9H0H5)
test_method_notes: blockers of MgcRacGAP-driven Rac1 GTP hydrolysis – biochemical, ADP Hunter fluorescence, primary and confirmatory, confirmation (AID 624330);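 note: fluorescence reports GDP produced by GAP-driven GTP hydrolysis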
condition_label: MgcRacGAP-stimulated Rac1 GTP hydrolysis, at 30 µM, hits give high values, GST-tagged Rac1 F28L mutant substrate
The whole screen tested about 340,000 compounds, of which about 2,100 (0.62%) were called active. These entries were drawn from the full list. Measured potencies and affinities stand elsewhere.
Attribute: inhibition
Respond numerically; units are % and should not be typed.

{"compound": "O=c1cc(-c2ccccc2)oc2cccc(O)c12", "inhibition, %": 0.53}

Challenge: I'd like to know its inhibition. The compound in question is COc1ccc([N+](=O)[O-])cc1N(CC(=O)N1CCN(Cc2ccccc2)CC1)S(C)(=O)=O
Response given: 6.86

Challenge: Lookup COc1ccc2c(c1)CCc1sc(NC(=O)c3ccco3)nc1-2
Response given: 9.86

Challenge: Lookup Clc1cc(NCc2cccs2)ccc1N1CCOCC1
Response given: 14.1

Challenge: Lookup C[C@H](CO)N1C[C@H](C)[C@@H](CN(C)C(=O)Nc2ccc(C(F)(F)F)cc2)Oc2ccc(NC(=O)CCC(F)(F)F)cc2C1=O
Response given: 5.69

Challenge: Lookup O=c1cc(-c2ccc(O)cc2)oc2cc(O)cc(O)c12
Response given: 14.4

Challenge: Lookup Cc1ccccc1OCC1Cn2c(nc3c2c(=O)[nH]c(=O)n3C)O1 (configuration not stated)
Response given: 2.68

Challenge: Lookup CN(/N=C/c1cc(Br)cc(Br)c1O)c1ccccc1
Response given: 5.13

---

assayed_target: Rac GTPase-activating protein 1 (Homo sapiens) (UniProt Q9H0H5)
test_method_notes: blockers of MgcRacGAP-driven Rac1 GTP hydrolysis – biochemical, ADP Hunter fluorescence, primary and confirmatory, confirmation (AID 624330);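 note: fluorescence reports GDP produced by GAP-driven GTP hydrolysis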
condition_label: MgcRacGAP-stimulated Rac1 GTP hydrolysis, at 30 µM, hits give high values, GST-tagged Rac1 F28L mutant substrate
Hit rate of the full screen: of about 340,000 compounds, about 2,100 (0.62%) were called active. A selection follows. Entries with a potency or affinity are not part of this list.
Attribute: inhibition
Respond numerically; units are % and should not be typed.

Past entries and their recorded results:
{"compound": "CN(C)CCNC(=S)Nc1ccc(Cl)cc1", "reading_unit": "%", "inhibition": 10.1}
{"compound": "O=C1N(C2CCCC2)C[C@@H]2C[C@@H](c3cn[nH]c3-c3ccc(Cl)cc3)N3CCC[C@@]123", "reading_unit": "%", "inhibition": 7.84}
{"compound": "COc1cccc(CNC(=O)CCC2CCCN(C(=O)c3ccc(C)nc3)C2)c1 (configuration not stated)", "reading_unit": "%", "inhibition": -7.59}

Challenge: I'd like to know its inhibition. The compound in question is CCc1ccc(-n2c(=O)c3ccccc3n3c(=S)[nH]nc23)cc1
Response given: 12.2

Challenge: Lookup CSc1ccccc1NC(=O)c1cccc(S(=O)(=O)N2CCN(C)CC2)c1
Response given: 2.55

Challenge: Lookup N#C/C(=C\c1ccc2c(c1)OCCO2)C(=O)Nc1ccc(C(=O)O)cc1
Response given: 8.32

Challenge: Lookup Cc1[nH]c(-c2ccc(F)cc2)cc1C(=O)N1CCN(c2cccc(Cl)c2)CC1
Response given: 21.1

Challenge: Lookup Cc1[nH]c2ccc(-c3n[nH]c(=S)n3Cc3ccccc3)cc2c1C
Response given: 10.2

Challenge: Lookup O=C(Nc1ccc(N2CCCCCC2)cc1)c1ccccc1Cl
Response given: 20.3

Challenge: Lookup CC(CC(=O)Nc1ccc(S(=O)(=O)N2CCOCC2)cc1)c1ccccc1 (configuration not stated)
Response given: 3.54

Challenge: Lookup Cc1ccc(C2=NN=C(NC(=O)CSc3nnc4c5ccccc5n(C)c4n3)SC2)cc1
Response given: 28.8

Challenge: Lookup Cc1cc(C)nc(SCC(=O)NC2=NN=C(c3ccc(Br)cc3)CS2)n1
Response given: 27.2

Challenge: Lookup Cc1c(NC(=O)c2ccc(S(=O)(=O)Nc3ccccc3F)cc2)c(=O)n(-c2ccccc2)n1C
Response given: 4.66

Challenge: Lookup Cc1ccc(C)c(CSc2ncccc2C(=O)O)c1
Response given: 9.95

Challenge: Lookup COc1cccc(-n2c(=O)c3ccccc3n3c(=S)[nH]nc23)c1
Response given: 13.7

Challenge: Lookup COc1cc(/C=C(\C#N)C(=O)Nc2ccccn2)ccc1O
Response given: 14.9

---

assayed_target: Rac GTPase-activating protein 1 (Homo sapiens) (UniProt Q9H0H5)
test_method_notes: blockers of MgcRacGAP-driven Rac1 GTP hydrolysis – biochemical, ADP Hunter fluorescence, primary and confirmatory, confirmation (AID 624330);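 note: fluorescence reports GDP produced by GAP-driven GTP hydrolysis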
condition_label: MgcRacGAP-stimulated Rac1 GTP hydrolysis, at 30 µM, hits give high values, GST-tagged Rac1 F28L mutant substrate
Screen size: about 340,000 compounds; about 2,100 (0.62%) were called active. Not all results are given here. Measured potencies and affinities stand elsewhere.
Attribute: inhibition
Respond numerically; units are % and should not be typed.

{"compound": "CC(NC(=O)C(C)N1CCN(Cc2ccccc2)CC1)c1ccc(F)cc1 (centres undefined)", "value_observed": 4.63}

Challenge: I'd like to know its inhibition. The compound in question is CC(NS(=O)(=O)c1ccc2c(c1)C(C)(C)C(=O)N2C)c1ccccc1 (centres undefined)
Response given: 3.16

Challenge: Lookup Cc1nn(-c2cc(N3CCCCC3)ccc2N)c(=O)c2ccccc12
Response given: 12.5

Challenge: Lookup CCc1ccc(NC(=O)N2CCN(c3ccc(F)cc3)CC2)cc1
Response given: 2.99

Challenge: Lookup CC(=O)N1CCN(c2ccc([N+](=O)[O-])cc2)CC1
Response given: 5.88

Challenge: Lookup COc1ccc(-c2cc(C3CCN(Cc4cccc(C(F)(F)F)c4)CC3)[nH]n2)cc1
Response given: 9.81

Challenge: Lookup CCc1ccc(NC2CC(=O)N(c3ccc(OC)cc3OC)C2=O)cc1 (centres undefined)
Response given: 4.67

Challenge: Lookup COc1ccc(/C=N/N2CCN(c3ccc(Cl)cc3)CC2)cc1O
Response given: 13.4

Challenge: Lookup CSc1cc(/C=N/O)c(SC)s1
Response given: 3.21

Challenge: Lookup CC(=O)N1CCN(c2ccc(NC(=O)c3ccc(F)cc3)cc2)CC1
Response given: 13.2

Challenge: Lookup Cc1nn(-c2ccccc2)c(C)c1NC(=O)COC(=O)CCOc1ccccc1
Response given: 2.57

Challenge: Lookup O=C(c1ccc(Br)o1)N1CC=C(c2ccccc2)CC1
Response given: -9.29

Source of measurements: PubChem BioAssay AID624330
